IC50 reference
# TEST_TARGET: human plasma BuChE (E.C. 3.1.1.8) (Homo sapiens, UniProt P06276)
# Sequence (P06276 29-602): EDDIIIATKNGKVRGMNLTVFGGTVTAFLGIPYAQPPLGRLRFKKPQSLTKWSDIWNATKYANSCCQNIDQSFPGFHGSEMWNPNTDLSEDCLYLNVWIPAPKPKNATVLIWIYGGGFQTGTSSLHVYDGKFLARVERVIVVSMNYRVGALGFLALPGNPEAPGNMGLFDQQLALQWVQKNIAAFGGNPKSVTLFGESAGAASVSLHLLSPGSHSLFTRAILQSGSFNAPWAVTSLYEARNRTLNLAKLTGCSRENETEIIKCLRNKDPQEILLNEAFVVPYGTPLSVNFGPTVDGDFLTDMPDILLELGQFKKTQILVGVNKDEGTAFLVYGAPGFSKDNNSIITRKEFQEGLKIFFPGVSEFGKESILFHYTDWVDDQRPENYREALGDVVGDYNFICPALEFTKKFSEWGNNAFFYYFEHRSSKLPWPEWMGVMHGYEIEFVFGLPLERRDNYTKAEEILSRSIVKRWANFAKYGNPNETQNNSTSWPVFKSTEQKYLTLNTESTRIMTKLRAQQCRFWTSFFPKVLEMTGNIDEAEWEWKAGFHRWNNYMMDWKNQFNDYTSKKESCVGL
# MEASUREMENT_PROTOCOL: biochemical

>  <COMPOUND>
CN1CC[C@@H]2C[C@H](O)[C@@H]3OC(=O)c4cc5c(cc4[C@H]3[C@@H]21)OCO5

>  <TEST_TARGET>
human plasma BuChE (E.C. 3.1.1.8) (Homo sapiens, UniProt P06276)

>  <MEASUREMENT_LABEL>
IC50

>  <VALUE_OBSERVED>
> 100 µM

$$$$

Here is another compound to look at.
Query block: I am curious: what IC50 value has been reported for COc1cc2c(cc1O)CN1CCC23C=CC(OC(C)=O)CC13 (centres unmarked) ?
Result block: > 100 µM

* * *

# TEST_TARGET: human recombinant AChE (E.C. 3.1.1.7) (Homo sapiens)
# Sequence (P22303 32-614): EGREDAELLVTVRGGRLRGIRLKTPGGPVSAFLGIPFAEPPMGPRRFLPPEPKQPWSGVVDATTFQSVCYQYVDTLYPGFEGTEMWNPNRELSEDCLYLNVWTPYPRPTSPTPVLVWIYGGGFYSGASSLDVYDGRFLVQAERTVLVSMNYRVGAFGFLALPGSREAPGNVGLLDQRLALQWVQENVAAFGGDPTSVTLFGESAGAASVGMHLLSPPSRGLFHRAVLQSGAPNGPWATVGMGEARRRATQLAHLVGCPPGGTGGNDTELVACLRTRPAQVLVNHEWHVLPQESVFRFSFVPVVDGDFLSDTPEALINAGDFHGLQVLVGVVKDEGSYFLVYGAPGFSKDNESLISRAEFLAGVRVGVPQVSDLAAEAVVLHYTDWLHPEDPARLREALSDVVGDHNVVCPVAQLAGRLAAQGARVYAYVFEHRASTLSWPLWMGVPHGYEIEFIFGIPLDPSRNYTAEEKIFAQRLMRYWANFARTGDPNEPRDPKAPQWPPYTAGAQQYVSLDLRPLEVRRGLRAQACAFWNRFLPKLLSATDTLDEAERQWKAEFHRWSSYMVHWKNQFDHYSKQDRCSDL
# MEASUREMENT_PROTOCOL: biochemical
pIC50: −log10 of the molar value.
MEASUREMENT_LABEL: pIC50

>  <COMPOUND>
CN1CC[C@@H]2C[C@H](O)[C@@H]3OC(=O)c4cc5c(cc4[C@H]3[C@@H]21)OCO5

>  <pIC50>
< 4.00

$$$$

Query block: Any idea what its pIC50 is? The compound is COc1cc2c(cc1O)CN1CCC23C=CC(OC(C)=O)CC13 (centres unmarked)
Result block: < 4.00
